System: IGROV1
Assay: NCI-60 one-dose SRB screening
Format: cell-based
Settings: Homo sapiens, IGROV-1, IGROV1, Ovarian Cancer, 10 µM one dose, 48 h, read-out: growth percentage
quantity: activity at 10 µM (%)
Please respond with the number in % and leave the unit unwritten.

Illustrative cases are given below, each with its answer.
compound	result.number
[O-][n+]1onc(-c2ccccc2)c1CNc1ccc(Nc2nc(C(F)(F)F)nc3c2cnn3-c2ccc(Br)cc2)cc1 [12b]	60.1
Cc1nn(-c2ccccc2)c2ncnc(Nc3ccc(OCc4c(-c5ccccc5)no[n+]4[O-])cc3)c12	97.1
Cc1nn(-c2ccccc2)c2nc(CNc3ccc(NCc4c(-c5ccccc5)no[n+]4[O-])cc3)[nH]c(=O)c12 [14b]	64.4
Cc1nc(Nc2ccc(OCc3c(-c4ccccc4)no[n+]3[O-])cc2)c2cnn(-c3ccc(Br)cc3)c2n1	101
O=c1[nH]c(CNc2ccc(NCc3c(-c4ccccc4)no[n+]3[O-])cc2)nc2c1cnn2-c1ccccc1 [14a]	52.5

compound `Cc1nn(-c2ccc(Br)cc2)c2ncnc(Nc3ccc(OCc4c(-c5ccccc5)no[n+]4[O-])cc3)c12` , activity at 10 µM observed: 88.2

----------
Listed here are compounds together with their documented activity at 10 µM.
Tested on: UO-31
Assay: NCI-60 one-dose SRB screening
Type: cell-based
Details: Homo sapiens, UO-31, Renal Cancer, 10 µM one dose, 48 h, read-out: growth percentage
Please respond with the number in % and leave the unit unwritten.

compound	activity at 10 µM / %
Cc1nn(-c2ccc(Br)cc2)c2nc(C(F)(F)F)nc(Nc3ccc(NCc4c(-c5ccccc5)no[n+]4[O-])cc3)c12 [12c]	50.3
Cc1nn(-c2ccccc2)c2nc(CCl)[nH]c(=O)c12 [13b]	-86.3
Cc1nc(Nc2ccc(OCc3c(-c4ccccc4)no[n+]3[O-])cc2)c2c(C)nn(-c3ccc(Br)cc3)c2n1 [6h]	74
Nc1ccc(NCc2c(-c3ccccc3)no[n+]2[O-])cc1 [compound 11]	98.9
Cc1nn(-c2ccc(Br)cc2)c2ncnc(Nc3ccc(OCc4c(-c5ccccc5)no[n+]4[O-])cc3)c12 [6g]	81.5
Cc1nn(-c2ccccc2)c2nc(CNc3ccc(NCc4c(-c5ccccc5)no[n+]4[O-])cc3)[nH]c(=O)c12 [14b]	72.4
Cc1nn(-c2ccc(Br)cc2)c2nc(CNc3ccc(NCc4c(-c5ccccc5)no[n+]4[O-])cc3)[nH]c(=O)c12 [14c]	83.4

Please examine the following record next.
# value of activity at 10 µM, UO-31, item O=c1[nH]c(CNc2ccc(NCc3c(-c4ccccc4)no[n+]3[O-])cc2)nc2c1cnn2-c1ccccc1 [14a] = 55.9

----------
Test system: T-47D
Assay: NCI-60 one-dose SRB screening
Type: cell-based
Conditions: Homo sapiens, T47D, Breast Cancer, 10 µM one dose, 48 h, read-out: growth percentage
Listed here are compounds together with their documented activity at 10 µM.
The reply should read as a number followed by its unit.

compound	activity at 10 µM
Cc1nc(Nc2ccc(OCc3c(-c4ccccc4)no[n+]3[O-])cc2)c2cnn(-c3ccc(Br)cc3)c2n1	97.2%
Cc1nc(Nc2ccc(OCc3c(-c4ccccc4)no[n+]3[O-])cc2)c2cnn(-c3ccccc3)c2n1	106%

compound `Cc1nc(Nc2ccc(OCc3c(-c4ccccc4)no[n+]3[O-])cc2)c2c(C)nn(-c3ccc(Br)cc3)c2n1` , activity at 10 µM observed: 81.4%

compound Cc1nn(-c2ccc(Br)cc2)c2nc(CNc3ccc(NCc4c(-c5ccccc5)no[n+]4[O-])cc3)[nH]c(=O)c12 [14c] , activity at 10 µM observed: 103%

compound Cc1nn(-c2ccccc2)c2nc(CNc3ccc(NCc4c(-c5ccccc5)no[n+]4[O-])cc3)[nH]c(=O)c12 [14b] , activity at 10 µM observed: 75.5%

compound `[O-][n+]1onc(-c2ccccc2)c1COc1ccc(Nc2ncnc3c2cnn3-c2ccccc2)cc1` , activity at 10 µM observed: 96%
